- Tested on: Hedgehog signaling (TM3-Gli-Luc)
- method_summary: TM3-Gli-Luc luciferase reporter assay stimulated with 20 nM SAG
- Format: cell-based
- condition_label: 20 nM SAG; mean ± standard error of the mean; read-out: TM3-Gli-Luc EC50
Listed compounds paired with reported pEC50
Quick note: pEC50 means taking -log10 of the concentration in moles per liter.

Please review the entries below; each comes with its answer.
CS(=O)(=O)c1ccc(C(=O)Nc2ccc(Cl)c(-c3ccccn3)c2)c(Cl)c1 [Vismodegib, reference compound]; 7.89
O=C(CSc1nc2sc3c(c2c(=O)n1C1CC1)CCCC3)c1cccs1; 5.72

Exercise: What does the record list as pEC50 for C=C(C)Cn1c(SCC(=O)c2cccs2)nc2sc3c(c2c1=O)CCNC3 [Formula 10a] ?
Solution: 5.19

Exercise: What does the record list as pEC50 for CCCn1c(SCC(=O)c2cccs2)nc2sc3c(c2c1=O)CCCC3 ?
Solution: 5.89

Exercise: What does the record list as pEC50 for C=C(C)Cn1c(SCC(=O)c2ccccc2)nc2sc3c(c2c1=O)CCCC3 ?
Solution: 5.24

Exercise: What does the record list as pEC50 for C=C(C)Cn1c(SCC(=O)c2cccs2)nc2sc3c(c2c1=O)CCCC3 ?
Solution: 5.87

Exercise: What does the record list as pEC50 for Cc1c(C(=O)Nc2ccc(N3C[C@@H](C)O[C@@H](C)C3)nc2)cccc1-c1ccc(OC(F)(F)F)cc1 [Sonidegib, reference compound] ?
Solution: 8.92

Exercise: What does the record list as pEC50 for CN(C)c1ccccc1CN1CCCN(Cc2ccccc2N(C)C)C1c1ccncc1 [GANT-61, reference compound] ?
Solution: 5.03

Exercise: What does the record list as pEC50 for C=C(C)Cn1c(SCC(=O)N2CCCCC2C)nc2sc3c(c2c1=O)CCCC3 (stereo not drawn) ?
Solution: 5.63
